Tested On: recombinant human HDAC8 (Homo sapiens, UniProt Q9BY41)
Sequence (Q9BY41 whole entry): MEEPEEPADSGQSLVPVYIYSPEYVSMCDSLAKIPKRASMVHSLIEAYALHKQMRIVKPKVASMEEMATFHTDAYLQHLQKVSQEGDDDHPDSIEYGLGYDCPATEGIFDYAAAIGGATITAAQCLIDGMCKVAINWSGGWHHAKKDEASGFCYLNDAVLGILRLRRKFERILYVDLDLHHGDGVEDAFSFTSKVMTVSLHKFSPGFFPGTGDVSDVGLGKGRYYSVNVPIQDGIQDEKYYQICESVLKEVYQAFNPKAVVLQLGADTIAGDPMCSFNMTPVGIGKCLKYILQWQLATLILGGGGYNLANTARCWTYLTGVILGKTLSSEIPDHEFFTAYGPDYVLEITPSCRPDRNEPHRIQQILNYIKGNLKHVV
Assay Text: HDAC fluorimetric assay, HDAC8
Condition Label: mean ± SD of three experiments
pIC50: −log10 of the molar value.
Value Type: pIC50

// sample CN(C)c1ccc(-c2nc(C(=O)NCc3ccc(/C=C/C(=O)NO)cc3)cc3c2[nH]c2ccccc23)cc1 [CHC] , its pIC50 was < 6.00

###

Test system: Bel7402
Assay Text: MTT antiproliferative assay, Bel7402
Assay type: cell-based
Condition Label: Homo sapiens, Bel-7402, 72 h, mean ± SD of three experiments, read-out: In vitro antiproliferative activity (IC50) Bel7402
Value Type: pIC50
Give bare numbers, as −log10 of the molar value.

// sample CN(C)c1ccc(-c2nc(C(=O)NCc3ccc(/C=C/C(=O)NO)cc3)cc3c2[nH]c2ccccc23)cc1 [CHC] , its pIC50 was 5.74

###

Tested On: recombinant human HDAC1 (Homo sapiens, UniProt Q13547)
Sequence (Q13547 whole entry): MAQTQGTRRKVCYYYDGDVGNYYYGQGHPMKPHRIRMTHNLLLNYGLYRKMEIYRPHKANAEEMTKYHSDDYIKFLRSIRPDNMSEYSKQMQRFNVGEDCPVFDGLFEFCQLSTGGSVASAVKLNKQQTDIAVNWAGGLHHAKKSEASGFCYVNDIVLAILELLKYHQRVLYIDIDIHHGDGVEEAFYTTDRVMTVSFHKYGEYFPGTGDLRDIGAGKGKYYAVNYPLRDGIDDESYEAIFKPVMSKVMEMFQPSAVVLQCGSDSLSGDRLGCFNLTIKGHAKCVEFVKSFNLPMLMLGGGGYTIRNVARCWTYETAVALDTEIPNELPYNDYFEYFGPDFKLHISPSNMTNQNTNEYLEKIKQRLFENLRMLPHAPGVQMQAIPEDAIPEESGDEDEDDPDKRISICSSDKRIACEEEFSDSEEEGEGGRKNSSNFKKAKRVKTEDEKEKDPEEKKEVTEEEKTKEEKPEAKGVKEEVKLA
Assay Text: HDAC fluorimetric assay, HDAC1
Condition Label: mean ± SD of three experiments
Value Type: pIC50
Answers are plain numbers, as −log10 of the molar value.

// sample CN(C)c1ccc(-c2nc(C(=O)NCc3ccc(/C=C/C(=O)NO)cc3)cc3c2[nH]c2ccccc23)cc1 , its pIC50 was 7.54

###

Tested On: recombinant human HDAC3 (Homo sapiens)
Sequence (O15379 whole entry): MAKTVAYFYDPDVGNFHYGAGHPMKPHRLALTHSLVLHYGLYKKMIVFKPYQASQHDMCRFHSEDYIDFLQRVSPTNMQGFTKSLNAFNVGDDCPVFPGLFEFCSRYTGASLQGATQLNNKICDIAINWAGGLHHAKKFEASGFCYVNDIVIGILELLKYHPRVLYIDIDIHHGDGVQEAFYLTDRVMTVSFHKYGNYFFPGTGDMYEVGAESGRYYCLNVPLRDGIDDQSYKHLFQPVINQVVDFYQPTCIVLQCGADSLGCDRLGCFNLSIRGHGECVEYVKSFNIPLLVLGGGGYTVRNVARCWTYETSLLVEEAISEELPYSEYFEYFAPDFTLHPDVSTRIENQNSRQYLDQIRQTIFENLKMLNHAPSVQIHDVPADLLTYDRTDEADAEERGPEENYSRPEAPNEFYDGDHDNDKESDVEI
Sequence (O75376 395-489 partner limits assumed): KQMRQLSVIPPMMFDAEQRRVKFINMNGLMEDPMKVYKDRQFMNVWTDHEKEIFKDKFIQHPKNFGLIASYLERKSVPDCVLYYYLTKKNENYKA
Assay Text: HDAC fluorimetric assay, HDAC3
Condition Label: mean ± SD of three experiments
Value Type: IC50 (nM)
One number for each entry, in nM.

// sample CN(C)c1ccc(-c2nc(C(=O)NCc3ccc(/C=C/C(=O)NO)cc3)cc3c2[nH]c2ccccc23)cc1 , its IC50 was 134

###

Test system: SUMM-7721, Bel7402, Huh7, HCT116 and Bel7402/5FU cells
Assay Text: MTT antiproliferative assay, range over the five cancer cell lines
Format: cell-based
Condition Label: Homo sapiens; range over drug-sensitive SUMM-7721, Bel7402, Huh7, HCT116 and drug-resistant Bel7402/5FU cells
Value Type: IC50

// sample CN(C)c1ccc(-c2nc(C(=O)NCc3ccc(/C=C/C(=O)NO)cc3)cc3c2[nH]c2ccccc23)cc1 , its IC50 was 1840 to 3270 nM
